# SYSTEM UNDER TEST: T1, human CD33 (human, UniProt P20138 18-364)
# T1 construct: Endogenous on HL-60 and HEL 92.1.7 AML cells, or recombinant on transfected HEK293F cells; The signal peptide is stated as amino acids 1-17; also called hCD33
# T1 sequence (P20138 18-364): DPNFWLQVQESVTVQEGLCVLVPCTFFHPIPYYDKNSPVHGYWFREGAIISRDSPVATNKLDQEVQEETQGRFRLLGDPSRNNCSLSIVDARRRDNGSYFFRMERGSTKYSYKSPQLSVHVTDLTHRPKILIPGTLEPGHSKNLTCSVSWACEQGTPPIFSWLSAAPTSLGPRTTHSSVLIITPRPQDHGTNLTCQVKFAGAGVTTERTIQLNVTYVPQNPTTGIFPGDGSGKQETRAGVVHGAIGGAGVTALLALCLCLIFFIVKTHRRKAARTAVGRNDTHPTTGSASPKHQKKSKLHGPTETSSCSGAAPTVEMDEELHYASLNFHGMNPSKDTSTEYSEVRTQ
# ASSAY PROCEDURE: flow cytometry on HEL 92.1.7 cells; competition with 1 nM AlexaFluor-647 m2H12 (methods paragraph 148)
MEASUREMENT KIND: EC50 (nM)

1) HILA (antibody, V domains shown, Humanized antibody, heavy chain HI with light chain LA) VH: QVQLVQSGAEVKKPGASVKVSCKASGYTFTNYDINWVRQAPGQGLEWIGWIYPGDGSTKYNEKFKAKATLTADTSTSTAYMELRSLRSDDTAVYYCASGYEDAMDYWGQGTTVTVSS VL: DIQMTQSPSSLSASVGDRVTITCKASQDINSYLSWFQQKPGKAPKSLIYRANRLVDGVPSRFSGSGSGTDFTLTISSLQPEDFATYYCLQYDEFPLTFGGGTKVEIK: 12.2
